Source: the supplement of paper PMC10567573

B1: CDC25B (parent)
chain: ELKTFRLKTRSWAGERSRRELCSR

Variants of: B1
procedureSummary: protein stability index of a GFP-peptide fusion (GPS, HEK-293T) (PSI 1-6); higher = more stable;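 note: lentivirally expressed fusions sorted by FACS into six bins by GFP to DsRed ratio, PSI derived from sequencing read proportions per bin multiplied by bin number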
recordedConditions: c terminus: a fixed tail appended
assayReadout: protein stability index
Returns: the value as a bare number; no unit string appended.

Exercise: Endpoint output: protein stability index of "E15I" . Value?
Key: 2.75

Exercise: And for "R6P" ?
Key: 3.75

Exercise: And for "F5E" ?
Key: 2.5

Exercise: And for "E15V" ?
Key: 2.51

Exercise: And for "R16V" ?
Key: 1.93

Exercise: And for "A13K" ?
Key: 3.31

Exercise: And for "S17E" ?
Key: 4.03

Exercise: And for "K3L" ?
Key: 2.14

Exercise: And for "E15S" ?
Key: 2.96

Exercise: And for "L2M" ?
Key: 3.87

Exercise: And for "K8I" ?
Key: 1.92

Exercise: And for "K3M" ?
Key: 3.02

Exercise: And for "A13I" ?
Key: 2.22

Exercise: And for "K3T" ?
Key: 3.2

Exercise: And for "W12K" ?
Key: 3.94

Exercise: And for "R19E" ?
Key: 3.66

Exercise: And for "L21S" ?
Key: 3.9

Exercise: And for "S23N" ?
Key: 3.8

Exercise: And for "R6M" ?
Key: 2.14

Exercise: And for "R16F" ?
Key: 2.6

Exercise: And for "T9D" ?
Key: 3.35

Exercise: And for "R10T" ?
Key: 2.37

Exercise: And for "L21P" ?
Key: 3.99

Exercise: And for "S17P" ?
Key: 3.35

Exercise: And for "S17G" ?
Key: 2.7

Exercise: And for "C22S" ?
Key: 3.25

Exercise: And for "S17H" ?
Key: 3.21

Exercise: And for "R16T" ?
Key: 3.87

Exercise: And for "E15C" ?
Key: 2.44

Exercise: And for "S23L" ?
Key: 3.35

Exercise: And for "L7R" ?
Key: 4.57

Exercise: And for "S11Q" ?
Key: 2.58

Exercise: And for "K8H" ?
Key: 3.07

Exercise: And for "G14I" ?
Key: 2.67

Exercise: And for "T9Q" ?
Key: 3.13

Exercise: And for "T4A" ?
Key: 3.47

Exercise: And for "T9A" ?
Key: 3.66

Exercise: And for "L7K" ?
Key: 4.68

Exercise: And for "L2H" ?
Key: 3.74

Exercise: And for "K8V" ?
Key: 2.68

Exercise: And for "S11T" ?
Key: 3.1

Exercise: And for "E15T" ?
Key: 2.98

Exercise: And for "T9P" ?
Key: 3.14

Exercise: And for "R10E" ?
Key: 2.66

Exercise: And for "R24A" ?
Key: 2.72

Exercise: And for "T9I" ?
Key: 1.99
